B1: TPR t1 (parent)
chain: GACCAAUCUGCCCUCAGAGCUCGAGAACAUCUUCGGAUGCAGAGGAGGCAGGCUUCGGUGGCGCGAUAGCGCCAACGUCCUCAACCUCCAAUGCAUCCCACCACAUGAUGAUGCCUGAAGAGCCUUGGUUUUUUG

variants of: B1; experiment: polymerase ribozyme fitness, log enrichment relative to wild type (log ratio); higher = more active; in vitro selection for triplet polymerase activity
Binary classification by polymerase ribozyme fitness (log ratio), with -4 as an inclusive lower bound for condition met; all other cases are condition not met.

Q) # bool: polymerase ribozyme fitness (log ratio) of G10U C53G U78A >= -4
A) condition met

Q) What do you get for U7G C72U U81A A91C G107C U112C ?
A) condition not met

Q) What do you get for C40A C72A U81A A119U ?
A) condition met

---
Q) # bool: polymerase ribozyme fitness (log ratio) of C8U G45U U59C U92A >= -4
A) condition not met

Q) What do you get for U7G G77U ?
A) condition met

Q) What do you get for A50U U59G U112G ?
A) condition met

Q) What do you get for C62U U78A C89U G117A ?
A) condition met

Q) What do you get for G52U C94U U106A A119G ?
A) condition met
